test: Drug level in wild type MDR1a-expressing mouse plasma at 1 mg/kg, iv measured after 4 hrs; assay type: ADME, organism-based; parameters: dose 1 mg/kg, route intravenous; conditions: read-out: Drug uptake
measureName: concentration at 4 h (nM)
Kindly provide the numeric value in nM only, without the unit symbol.

Challenge: Can you share its concentration at 4 h? I mean this compound: Cc1cc(C(=O)N[C@@H]2CC(C)(C)Oc3nc(-c4ccc(Cl)cc4Cl)c(-c4ccc(Cl)cc4)cc32)n[nH]1
Response given: 410

###

assay: Cmax in Sprague-Dawley rat at 1 mg/kg, iv and 2 mg/kg, po; type: ADME, organism-based; details: in vivo
measureName: Cmax (nM)
State just the number; it will be interpreted in nM.

Challenge: # input molecule: Cc1cc(C(=O)N[C@@H]2CC(C)(C)Oc3nc(-c4ccc(Cl)cc4Cl)c(-c4ccc(Cl)cc4)cc32)n[nH]1 ; wanted: its Cmax
Response given: 1030

###

experiment: Bioavailability in Sprague-Dawley rat at 1 mg/kg, iv and 2 mg/kg, po; format: ADME, organism-based; conditions: in vivo
Some compounds, each annotated with its measured bioavailability.
Lab book: enter the figure in %, no units written.

Below, 3 compounds whose answers are already recorded.
1. CC1(C)C[C@@H](NC(=O)c2ccccc2N)c2cc(-c3ccc(Cl)cc3)c(-c3ccc(Cl)cc3Cl)nc2O1    5
2. CC1(C)CC(NC(=O)CC(O)C(F)(F)F)c2cc(-c3ccc(Cl)cc3)c(-c3ccc(Cl)cc3Cl)nc2O1 (racemic)    41
3. CC(O)C(=O)NC1CC(C)(C)Oc2nc(-c3ccc(Cl)cc3Cl)c(-c3ccc(Cl)cc3)cc21 (single isomer, unassigned)    100

Challenge: Data request, read-out bioavailability, for CC1(C)C[C@@H](NC(=O)c2ccccc2O)c2cc(-c3ccc(Cl)cc3)c(-c3ccc(Cl)cc3Cl)nc2O1
Response given: 1

Challenge: Using the record for Cc1cc(C(=O)N[C@@H]2CC(C)(C)Oc3nc(-c4ccc(Cl)cc4Cl)c(-c4ccc(Cl)cc4)cc32)n[nH]1 , report its bioavailability.
Response given: 91

###

assay: Plasma clearance in Beagle dog at 0.2 mg/kg, iv; type: ADME, organism-based, Canis lupus familiaris; set-up: dose 0.2 mg/kg, route intravenous
measureName: clearance (mL/min/kg)
Numbers only; they are read as mL/min/kg.

Challenge: Data request, read-out clearance, for Cc1cc(C(=O)N[C@@H]2CC(C)(C)Oc3nc(-c4ccc(Cl)cc4Cl)c(-c4ccc(Cl)cc4)cc32)n[nH]1
Response given: 1.1

###

test: Ratio of drug level in brain to plasma in wild type MDR1a-expressing mouse at 1 mg/kg, iv measured after 4 hrs; format: ADME, organism-based; design: dose 1 mg/kg, route intravenous; conditions: brain and plasma, read-out: BPR
measureName: Kp at 4 h
Please state the value as a number alone, without comment.

Challenge: Look at this molecule and give its reported Kp at 4 h. Cc1cc(C(=O)N[C@@H]2CC(C)(C)Oc3nc(-c4ccc(Cl)cc4Cl)c(-c4ccc(Cl)cc4)cc32)n[nH]1
Response given: 0.66

###

assay: Volume of distribution at steady state in Beagle dog at 0.2 mg/kg, iv; type: ADME, organism-based, Canis lupus familiaris; set-up: dose 0.2 mg/kg, route intravenous; conditions: in vivo, read-out: Vdss
measureName: Vd (L/kg)
Expressed in L/kg, but write only the number.

Challenge: Quick one: Vd for Cc1cc(C(=O)N[C@@H]2CC(C)(C)Oc3nc(-c4ccc(Cl)cc4Cl)c(-c4ccc(Cl)cc4)cc32)n[nH]1 ?
Response given: 5.7

###

experiment: Half life in Sprague-Dawley rat at 1 mg/kg, iv and 2 mg/kg, po; type: ADME, organism-based; conditions: in vivo
// condition not met strictly below 8 h in half-life; condition met otherwise

Challenge: Dear colleague, could you confirm whether CC1(C)C[C@@H](NC(=O)c2ccccc2O)c2cc(-c3ccc(Cl)cc3)c(-c3ccc(Cl)cc3Cl)nc2O1 has half-life at or above 8 h?
Response given: condition not met

Challenge: Is it the case that Cc1cc(C(=O)N[C@@H]2CC(C)(C)Oc3nc(-c4ccc(Cl)cc4Cl)c(-c4ccc(Cl)cc4)cc32)n[nH]1 has half-life reaching or exceeding 8 h?
Response given: condition met

Challenge: Answer whether half-life of CC1(C)C[C@@H](NC(=O)c2ccccc2N)c2cc(-c3ccc(Cl)cc3)c(-c3ccc(Cl)cc3Cl)nc2O1 is greater than or equal to 8 h.
Response given: condition not met

###

assay: Drug level in diet-induced obese rat brain at 0.3 mg/kg, po measured after 24 hrs of last dose on day 13; format: ADME, organism-based; set-up: dose 0.3 mg/kg, route oral; conditions: read-out: Drug uptake
measureName: concentration at 24 h
Respond with the figure and its unit, in that order.

Challenge: Reported concentration at 24 h for Cc1cc(C(=O)N[C@@H]2CC(C)(C)Oc3nc(-c4ccc(Cl)cc4Cl)c(-c4ccc(Cl)cc4)cc32)n[nH]1 : what is it?
Response given: 74 nM

###

assay: Ratio of drug level in brain to plasma in P-gp deficient CF1 mouse at 1 mg/kg, iv measured after 4 hrs; format: ADME, organism-based; design: dose 1 mg/kg, route intravenous; details: brain and plasma, read-out: BPR
measureName: Kp at 4 h
Could you keep your reply to the number by itself?

Challenge: Which value of Kp at 4 h has been reported for Cc1cc(C(=O)N[C@@H]2CC(C)(C)Oc3nc(-c4ccc(Cl)cc4Cl)c(-c4ccc(Cl)cc4)cc32)n[nH]1 in the records?
Response given: 4.66

###

experiment: Volume of distribution at steady state in Sprague-Dawley rat at 1 mg/kg, iv and 2 mg/kg, po; type: ADME, organism-based; details: in vivo, read-out: Vdss
measureName: Vd (L/kg)
Enter your answer as a number in L/kg; do not include the unit.

Challenge: State the recorded Vd for this entry: Cc1cc(C(=O)N[C@@H]2CC(C)(C)Oc3nc(-c4ccc(Cl)cc4Cl)c(-c4ccc(Cl)cc4)cc32)n[nH]1
Response given: 3

###

assay: Drug level in P-gp deficient CF1 mouse brain at 1 mg/kg, iv measured after 4 hrs; type: ADME, organism-based; design: dose 1 mg/kg, route intravenous; details: read-out: Drug uptake
measureName: concentration at 4 h
Record the result as a number with its unit.

Challenge: Recorded concentration at 4 h of Cc1cc(C(=O)N[C@@H]2CC(C)(C)Oc3nc(-c4ccc(Cl)cc4Cl)c(-c4ccc(Cl)cc4)cc32)n[nH]1 , please.
Response given: 1400 nM

###

experiment: Plasma concentration in dog at 3 mg/kg, iv administered for 30 mins; format: ADME, organism-based, Canis lupus familiaris; design: dose 3 mg/kg, route intravenous
measureName: concentration at 0.5 h (µM)
Write the answer as a number in µM, unit excluded.

Challenge: Which concentration at 0.5 h reading was recorded for the molecule Cc1cc(C(=O)N[C@@H]2CC(C)(C)Oc3nc(-c4ccc(Cl)cc4Cl)c(-c4ccc(Cl)cc4)cc32)n[nH]1 ?
Response given: 3.26

These measurements were taken from ChEMBL document CHEMBL1157794.
